binders and their reported Cellular binding assay [RFU]
Target: T1, CD27 expressed on the cell surface (HT1080_CD27 cells) (human, UniProt P26842 20-260)
T1 construct: whole, on cells; also called K562_CD27
T1 sequence (looked up): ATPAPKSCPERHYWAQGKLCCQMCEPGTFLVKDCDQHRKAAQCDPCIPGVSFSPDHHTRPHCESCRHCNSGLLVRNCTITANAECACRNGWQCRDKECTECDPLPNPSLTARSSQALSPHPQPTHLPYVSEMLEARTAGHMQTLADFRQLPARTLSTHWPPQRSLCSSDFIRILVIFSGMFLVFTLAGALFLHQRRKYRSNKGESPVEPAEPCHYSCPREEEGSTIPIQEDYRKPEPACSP
Test: cellular binding assay, HT1080_CD27 cells; further: test concentration or dose not given here

>  <binder>
P018.S.01.A.C06 (antibody, V domains shown, V regions on human Ig constant parts; also called AB27_10) VH: QSVEESGGRLVTPGTPLTLTCTVSGIDLNNYVMGWVRQAPGKGLEWIGIINTAGSTYYANWAKGRFTISKTSTTVDLKITSPTTEDTATYFCARDSSYYIGYYFNLWGPGTLVTVSS VL: QIVMTQTPASVEVAVGGTVTIKCQASQSIGSNLAWYQQKPGQPPKLLIYDASDLESGVPSRFKGSGSGAQFTLTISDLESADAATYYCQQGYSATTNVDNAFGGGTEVVVK

>  <Cellular binding assay [RFU] / RFU>
369

$$$$
>  <binder>
P018.S.08.A.G02 (antibody, V domains shown, V regions on human Ig constant parts; also called AB27_141) VH: QSVEESGGRLVTPGTPLTLTCTVSGFSLSTYAMSWVRQAPGKGLEWIGMNTRSGIIYYASWAKGRFTISKTSTTVHLKITSPTTEDTATYFCARDLYADVSGYYLGLWGPGTLVTVSS VL: AQVLTQTPSSVSAAVGGTVTINCQASQSLYNNKNLAWYQQKPGQPPKLLIYYASTLASGVSSRFKGSGSGTQFTLTISDLESDDAATYYCQGEFICSSADCVVFGGGTAVVVK

>  <Cellular binding assay [RFU] / RFU>
315

$$$$
>  <binder>
P018.S.07.A.B04 (antibody, V domains shown, V regions on human Ig constant parts; also called AB27_116) VH: QSVEESGGRLVTPGTPLTLTCTVSGFSLSSYDMIWVRQAPGKGLEWIGIIYLTDTTYYANWTKGRFTISKTSTTVDLKISSPTTEDTATYFCARHLDTSSGGFYFNLWGQGTLVTVSS VL: AQVLTQTPSSVSAAVGGTVTINCQASQSVYNSKILAWYQQKPGRPPKLLIYDASTLASGVPSRFKGSGSGTQFTLTISGVQSDDAATYFCQGEFTCTSADCIAFGGGTEVVVK

>  <Cellular binding assay [RFU] / RFU>
382

$$$$
>  <binder>
P018.S.07.A.D03 (antibody, V domains shown, V regions on human Ig constant parts; also called AB27_122) VH: QEQLKESGGGLVTPGGTLTLTCTVSGFSLSGHDMGWVRQAPGKGLEWIGIIGSNSKTYYTNWAKGRFTISKTSTTVGLRITSPTTEDTATYFCTVVGPGVGGFYFDLWGQGTLVTVSS VL: DVVMTQTPASVSDPVGGTVTIRCQASQSIGSDLAWYQQKPGQPPKLLIYAASTLASGVPSRFSGSGSGTEYTLTISDLESADAATYYCQCTYVGSTYLGAFGGGTEVVVK

>  <Cellular binding assay [RFU] / RFU>
409

$$$$
>  <binder>
P018.S.04.A.D05 (antibody, V domains shown, V regions on human Ig constant parts; also called AB27_73) VH: QSLEESGGRLVTPGTPLTLTCTASGIDLSRHAINWVRQAPGKGLEYIGTIYASGSTFYASGAKGRFTISKTSTTVDLGITSLTTEDTATYFCARGITIEWFDLWGQGTLVTVSS VL: AAVLTQTPSSVSAAVGGTVTINCQSSPSVYSNYLSWFQQKPGQPPKLLIYGAATLASGVPSRFRGSGSGTEFTLTITDVQSDDAATYYCLGGYSDTADTIFGGGTEVVVK

>  <Cellular binding assay [RFU] / RFU>
292

$$$$
